Study Target: Phosphatidylinositol 4,5-bisphosphate 3-kinase catalytic subunit beta isoform (Homo sapiens)
Sequence (P42338 whole entry, canonical isoform): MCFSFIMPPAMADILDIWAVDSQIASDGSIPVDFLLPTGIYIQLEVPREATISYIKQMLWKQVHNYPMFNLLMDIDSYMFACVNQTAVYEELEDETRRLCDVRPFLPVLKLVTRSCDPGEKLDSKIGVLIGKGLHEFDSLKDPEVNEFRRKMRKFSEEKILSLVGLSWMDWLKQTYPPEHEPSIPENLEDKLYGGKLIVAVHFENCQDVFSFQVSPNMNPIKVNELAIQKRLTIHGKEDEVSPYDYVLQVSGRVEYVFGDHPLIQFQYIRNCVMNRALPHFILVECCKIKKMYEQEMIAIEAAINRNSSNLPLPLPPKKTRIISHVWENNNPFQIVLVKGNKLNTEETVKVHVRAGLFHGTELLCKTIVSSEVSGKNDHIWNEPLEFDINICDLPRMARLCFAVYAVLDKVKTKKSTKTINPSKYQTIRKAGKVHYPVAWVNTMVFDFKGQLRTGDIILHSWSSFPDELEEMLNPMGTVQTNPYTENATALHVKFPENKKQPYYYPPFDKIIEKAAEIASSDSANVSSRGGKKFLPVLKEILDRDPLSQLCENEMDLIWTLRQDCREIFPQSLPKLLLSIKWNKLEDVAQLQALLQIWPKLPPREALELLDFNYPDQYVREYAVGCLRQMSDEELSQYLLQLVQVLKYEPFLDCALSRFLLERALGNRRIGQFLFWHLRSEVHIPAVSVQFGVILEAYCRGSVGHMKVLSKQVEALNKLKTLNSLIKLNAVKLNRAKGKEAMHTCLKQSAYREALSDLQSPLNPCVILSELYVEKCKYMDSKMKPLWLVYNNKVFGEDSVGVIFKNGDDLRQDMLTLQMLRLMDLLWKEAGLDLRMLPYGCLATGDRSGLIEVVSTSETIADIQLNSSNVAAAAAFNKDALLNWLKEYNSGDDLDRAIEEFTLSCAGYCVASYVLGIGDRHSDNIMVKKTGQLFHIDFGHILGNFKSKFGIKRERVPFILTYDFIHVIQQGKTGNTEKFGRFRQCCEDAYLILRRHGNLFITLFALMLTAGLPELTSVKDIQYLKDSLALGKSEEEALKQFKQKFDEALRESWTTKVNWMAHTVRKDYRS
Assay Explanation: Inhibition of human PI3Kbeta by HTRF assay
Run Parameters: read-out: Ki(app)
Measurement Name: pKi
One number for each entry, as −log10 of the molar value.

QUERY: Entry COCCNC(=O)c1nc2c(N3CCOCC3)nc(-c3cnc(N)nc3)cn2c1C needs its pKi filled in; supply it.
RESULT: 7.03

---

Test system: MDR1 (P-gp), human
Assay Explanation: Efflux ratio of permeability from basolateral to apical side over apical to basolateral side in MDCK cells over expressing human MDR1 at 2 uM after 150 mins
Type: ADME, cell-based, Canis lupus familiaris
Run Parameters: dog
Measurement Name: efflux ratio at 2.5 h, 2 µM
Numbers only.

QUERY: Hello, please tell me recorded efflux ratio at 2.5 h, 2 µM for this one: NC(=O)c1cn2cc(-c3cnc(N)nc3)nc(N3CCOCC3)c2n1
RESULT: 0.9

---

Assay Explanation: Metabolic stability in mouse liver microsomes assessed as compound remaining at 1 uM after 15 mins
Assay type: ADME, Microsome
Run Parameters: read-out: Stability
Measurement Name: remaining at 0.25 h, 1 µM (%)
Numbers only, in %.

QUERY: // fetch remaining at 0.25 h, 1 µM given entry NC(=O)c1cn2cc(-c3cnc(N)nc3)nc(N3CCOCC3)c2n1
RESULT: 92

---

Study Target: Phosphatidylinositol 4,5-bisphosphate 3-kinase catalytic subunit alpha isoform (Homo sapiens, UniProt P42336)
Sequence (P42336 whole entry, canonical isoform): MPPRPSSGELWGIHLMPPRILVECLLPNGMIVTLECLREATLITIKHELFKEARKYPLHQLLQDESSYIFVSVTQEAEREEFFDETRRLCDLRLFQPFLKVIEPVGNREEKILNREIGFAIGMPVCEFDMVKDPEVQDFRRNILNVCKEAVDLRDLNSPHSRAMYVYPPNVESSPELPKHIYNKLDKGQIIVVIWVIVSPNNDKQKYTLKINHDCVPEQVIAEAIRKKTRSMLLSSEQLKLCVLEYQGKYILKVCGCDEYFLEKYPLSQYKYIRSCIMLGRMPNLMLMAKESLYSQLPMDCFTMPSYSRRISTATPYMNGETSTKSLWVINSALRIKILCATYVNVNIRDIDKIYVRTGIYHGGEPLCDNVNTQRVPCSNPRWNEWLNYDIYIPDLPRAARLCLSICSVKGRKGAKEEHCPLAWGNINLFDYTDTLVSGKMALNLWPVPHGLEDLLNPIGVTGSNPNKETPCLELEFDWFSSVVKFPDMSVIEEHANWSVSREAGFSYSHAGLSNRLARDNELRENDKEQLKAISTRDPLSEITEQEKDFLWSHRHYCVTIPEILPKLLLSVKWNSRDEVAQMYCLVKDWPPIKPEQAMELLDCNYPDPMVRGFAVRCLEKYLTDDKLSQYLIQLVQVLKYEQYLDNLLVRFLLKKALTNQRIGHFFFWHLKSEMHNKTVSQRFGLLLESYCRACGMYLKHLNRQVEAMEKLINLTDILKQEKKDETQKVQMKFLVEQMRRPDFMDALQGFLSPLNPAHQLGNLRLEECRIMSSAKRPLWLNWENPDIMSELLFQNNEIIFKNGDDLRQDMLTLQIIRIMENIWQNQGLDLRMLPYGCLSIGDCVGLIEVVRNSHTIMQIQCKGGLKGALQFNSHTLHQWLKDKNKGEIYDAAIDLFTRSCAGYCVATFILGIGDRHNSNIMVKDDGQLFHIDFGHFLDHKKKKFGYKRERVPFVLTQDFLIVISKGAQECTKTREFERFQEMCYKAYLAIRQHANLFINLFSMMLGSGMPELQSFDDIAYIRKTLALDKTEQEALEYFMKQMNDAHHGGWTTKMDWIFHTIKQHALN
Assay Explanation: Inhibition of PI3Kalpha-mediated AKT phosphorylation at Ser473 in human U2OS cells by Western blot analysis
Format: cell-based
Measurement Name: log10 IC50 (log10 of the value in nM)
Heads up, the numbers here are log10 of IC50 in nM units.

Example cases with answers are listed next.
- Molecule Smiles: "CN(C)CCNC(=O)c1cn2cc(-c3cnc(N)nc3)nc(N3CCOCC3)c2n1"
  Measured Number: 1.48
- Molecule Smiles: "COCCNC(=O)c1cn2c(Cl)c(-c3cnc(N)nc3)nc(N3CCOCC3)c2n1"
  Measured Number: 1.55
- Molecule Smiles: "Nc1ncc(-c2cn3cc(C(=O)NCCN4CCOCC4)nc3c(N3CCOCC3)n2)cn1"
  Measured Number: 1.54

Hi! Can you tell me log10 IC50 for each of these molecules?
1. CN(C)CCCNC(=O)c1cn2cc(-c3cnc(N)nc3)nc(N3CCOCC3)c2n1
2. Nc1ncc(-c2cn3cc(C(=O)N[C@H]4CC[C@H](O)CC4)nc3c(N3CCOCC3)n2)cn1
3. NC(=O)c1cn2cc(-c3cnc(N)nc3)nc(N3CCOCC3)c2n1
4. COCCNC(=O)c1cn2cc(-c3cnc(N)nc3)nc(N3CCOCC3)c2n1
5. COCCCNC(=O)c1cn2cc(-c3cnc(N)nc3)nc(N3CCOCC3)c2n1
6. CN(C)CCCNC(=O)c1cn2cc(-c3cccc4[nH]ncc34)nc(N3CCOCC3)c2n1

RESULT:
1. 0.94
2. 1.85
3. 0.26
4. 1.15
5. 1.41
6. 2.63

---

System: MDR1 (P-gp), human
Assay Explanation: Apparent permeability from apical to basolateral side in MDCK cells over expressing human MDR1 at 2 uM after 150 mins
Assay type: ADME, cell-based, Canis lupus familiaris
Run Parameters: dog
Measurement Name: Papp A→B at 2.5 h, 2 µM (×10⁻⁶ cm/s)
Numbers only, in ×10⁻⁶ cm/s.

QUERY: Name the recorded Papp A→B at 2.5 h, 2 µM of the compound listed here: NC(=O)c1cn2cc(-c3cnc(N)nc3)nc(N3CCOCC3)c2n1
RESULT: 15.4

---

Record: IC50 reported on Serine/threonine-protein kinase mTOR (Homo sapiens, UniProt P42345).

Field: example entries. Status: answers known.
- Molecule Smiles: "CN(C)CCCNC(=O)c1cn2cc(-c3cnc(N)nc3)nc(N3CCOCC3)c2n1"
  IC50: "> 5 µM"
- Molecule Smiles: "CN(C)CCNC(=O)c1cn2cc(-c3cnc(N)nc3)nc(N3CCOCC3)c2n1"
  IC50: "> 5 µM"
- Molecule Smiles: "NC(=O)c1cn2cc(-c3cnc(N)nc3)nc(N3CCOCC3)c2n1"
  IC50: "0.237 µM"

For the next question, use this compound.
QUERY: Return reported IC50. Input compound: Nc1ncc(-c2cn3cc(C(=O)NCCN4CCOCC4)nc3c(N3CCOCC3)n2)cn1
RESULT: > 5 µM

Data origin, for the record: ChEMBL document CHEMBL2057167
